Overview of recorded IC50 for various molecules
- experimental-target: Bromodomain-containing protein 4 (Homo sapiens, UniProt O60885)
- method-description: Inhibition of His-tagged BRD4 bromodomain 1 (unknown origin) using [Lys (5,8,12,16) Ac] H4(1-21) as substrate by fluorescence based assay
property-measured: IC50

* Cn1cc(-c2ccccc2Oc2ccccc2)c2cc(C(=O)NCc3ccc(C(=O)Nc4ccccc4N)cc3)[nH]c2c1=O | 31.7 nM
* Cn1cc(-c2cccc(C(F)(F)F)c2)c2cc(C(=O)NCc3ccc(C(=O)Nc4ccccc4N)cc3)[nH]c2c1=O | 823 nM
* Cn1cc(-c2cccc(F)c2)c2cc(C(=O)NCc3ccc(C(=O)Nc4ccccc4N)cc3)[nH]c2c1=O | 50.9 nM
* O=C(CCCCCCC(=O)Nc1ccccc1)NO [VORINOSTAT] | > 10000 nM
